meta.source: patent US7772228B2

Test: clinical
Details: human, in vivo, 30 mg
MEASURED ATTRIBUTE: Tmax (h)
API: value field is a number in h; no unit string.

[ask] What measured Tmax goes with CO[C@H]1/C=C/O[C@@]2(C)Oc3c(C)c(O)c4c(=O)c(c5oc6cc(N7CCN(CC(C)C)CC7)cc(O)c6nc-5c4c3C2=O)NC(=O)/C(C)=C\C=C\[C@H](C)[C@H](O)[C@@H](C)[C@@H](O)[C@@H](C)[C@H](OC(C)=O)[C@@H]1C [Rifalazil] ?
[reply] 3.1

* * *

Test: Clinical trial 005, rifalazil concentration in plasma of tuberculosis patients
Format: in vivo, human
Details: human, plasma, 10 mg, INH + 10 mg KRM; Day 11; read-out: Rifalazil Concentration in Plasma, Min
MEASURED ATTRIBUTE: concentration at 11 day (ng/mL)
All answers are understood in ng/mL, so give the number only.

[ask] Name the reported concentration at 11 day value associated with the compound CO[C@H]1/C=C/O[C@@]2(C)Oc3c(C)c(O)c4c(=O)c(c5oc6cc(N7CCN(CC(C)C)CC7)cc(O)c6nc-5c4c3C2=O)NC(=O)/C(C)=C\C=C\[C@H](C)[C@H](O)[C@@H](C)[C@@H](O)[C@@H](C)[C@H](OC(C)=O)[C@@H]1C [Rifalazil]
[reply] 2

* * *

Experiment: Clinical trial 005, rifalazil concentration in plasma of tuberculosis patients
Assay type: in vivo, human
Conditions: human, plasma, INH + 25 mg KRM; Hour 24; read-out: Rifalazil Concentration in Plasma, Mean
MEASURED ATTRIBUTE: concentration at 24 h (ng/mL)
Express the result in ng/mL but write the number alone.

[ask] Recorded concentration at 24 h of `CO[C@H]1/C=C/O[C@@]2(C)Oc3c(C)c(O)c4c(=O)c(c5oc6cc(N7CCN(CC(C)C)CC7)cc(O)c6nc-5c4c3C2=O)NC(=O)/C(C)=C\C=C\[C@H](C)[C@H](O)[C@@H](C)[C@@H](O)[C@@H](C)[C@H](OC(C)=O)[C@@H]1C` , please.
[reply] 7.72

* * *

Test: clinical
Settings: human, in vivo, 30 mg
MEASURED ATTRIBUTE: Cmax (ng/mL)
Give just the numeric value; ng/mL need not be written.

[ask] Which Cmax reading was recorded for the compound `CO[C@H]1/C=C/O[C@@]2(C)Oc3c(C)c(O)c4c(=O)c(c5oc6cc(N7CCN(CC(C)C)CC7)cc(O)c6nc-5c4c3C2=O)NC(=O)/C(C)=C\C=C\[C@H](C)[C@H](O)[C@@H](C)[C@@H](O)[C@@H](C)[C@H](OC(C)=O)[C@@H]1C` ?
[reply] 17.8

* * *

Test: clinical
Settings: human, in vivo, Half-life distribution t½ (mean)
MEASURED ATTRIBUTE: half-life (h)
Provide the reading as a plain figure in h.

[ask] Can you look up the measured half-life of `CO[C@H]1/C=C/O[C@@]2(C)Oc3c(C)c(O)c4c(=O)c(c5oc6cc(N7CCN(CC(C)C)CC7)cc(O)c6nc-5c4c3C2=O)NC(=O)/C(C)=C\C=C\[C@H](C)[C@H](O)[C@@H](C)[C@@H](O)[C@@H](C)[C@H](OC(C)=O)[C@@H]1C` for me?
[reply] 10.1

* * *

Assay: Clinical trial 005, rifalazil concentration in plasma of tuberculosis patients
Format: in vivo, human
Conditions: human, plasma, INH + 10 mg KRM; Hour 0; read-out: Rifalazil Concentration in Plasma, Min
MEASURED ATTRIBUTE: concentration at 0 h
Form entry: enter the amount, then its unit.

[ask] Quick one: concentration at 0 h of CO[C@H]1/C=C/O[C@@]2(C)Oc3c(C)c(O)c4c(=O)c(c5oc6cc(N7CCN(CC(C)C)CC7)cc(O)c6nc-5c4c3C2=O)NC(=O)/C(C)=C\C=C\[C@H](C)[C@H](O)[C@@H](C)[C@@H](O)[C@@H](C)[C@H](OC(C)=O)[C@@H]1C [Rifalazil] ?
[reply] 0 ng/mL
